Entries and their IC50
# Tested on: MDA-MB-231/ADR breast cancer cells
# procedure.details: MTT antiproliferative assay, MDA-MB-231/ADR
# Format: cell-based
# settings: Homo sapiens, MDA-MB-231, 24 h, read-out: Antiproliferative activity (IC50) MDA-MB-231/ADR

molecule | system.under.test | IC50
CCON=C1C(=O)N(CCCC(=O)OC2O[C@@H]3O[C@@]4(C)CC[C@H]5[C@H](C)CC[C@@H]([C@H]2C)[C@@]35OO4)c2ccc(F)cc21 (stereo partly drawn) | MDA-MB-231/ADR breast cancer cells | > 100 µM
Cc1ccc2c(c1)C(=NOCc1ccccc1)C(=O)N2CCCC(=O)OC1O[C@@H]2O[C@@]3(C)CC[C@H]4[C@H](C)CC[C@@H]([C@H]1C)[C@@]24OO3 (stereo partly drawn) | MDA-MB-231/ADR breast cancer cells | > 100 µM
C[C@@H]1CC[C@H]2[C@@H](C)C(OC(=O)CCCN3C(=O)C(=NOCc4ccccc4)c4cc(F)ccc43)O[C@@H]3O[C@@]4(C)CC[C@@H]1[C@]32OO4 (stereo partly drawn) | MDA-MB-231/ADR breast cancer cells | > 100 µM

[ask] GET /values?readout=IC50&item= COc1ccc2c(c1)C(=O)C(=O)N2CCCC(=O)OC1O[C@@H]2O[C@@]3(C)CC[C@H]4[C@H](C)CC[C@@H]([C@H]1C)[C@@]24OO3 (stereo partly drawn)
[reply] 20.1 µM

[ask] GET /values?readout=IC50&item= C[C@@H]1CC[C@H]2[C@@H](C)C(=O)O[C@@H]3O[C@@]4(C)CC[C@@H]1[C@]32OO4 [ART, Artemisinin, reference compound]
[reply] > 100 µM

[ask] GET /values?readout=IC50&item= CON=C1C(=O)N(CCCC(=O)OC2O[C@@H]3O[C@@]4(C)CC[C@H]5[C@H](C)CC[C@@H]([C@H]2C)[C@@]35OO4)c2ccc(OC)cc21 (stereo partly drawn)
[reply] > 100 µM

[ask] GET /values?readout=IC50&item= C[C@H]1[C@@H](O)O[C@@H]2O[C@@]3(C)CC[C@H]4[C@H](C)CC[C@@H]1[C@@]24OO3 [DHA, Dihydroartemisinin, reference compound]
[reply] 82.8 µM

[ask] GET /values?readout=IC50&item= CCON=C1C(=O)N(CCCC(=O)OC2O[C@@H]3O[C@@]4(C)CC[C@H]5[C@H](C)CC[C@@H]([C@H]2C)[C@@]35OO4)c2ccccc21 (stereo partly drawn)
[reply] 26.8 µM

[ask] GET /values?readout=IC50&item= CON=C1C(=O)N(CCCC(=O)OC2O[C@@H]3O[C@@]4(C)CC[C@H]5[C@H](C)CC[C@@H]([C@H]2C)[C@@]35OO4)c2ccc(F)cc21 (stereo partly drawn)
[reply] > 100 µM

[ask] GET /values?readout=IC50&item= Cc1ccc2c(c1)C(=O)C(=O)N2CCCC(=O)OC1O[C@@H]2O[C@@]3(C)CC[C@H]4[C@H](C)CC[C@@H]([C@H]1C)[C@@]24OO3 (stereo partly drawn)
[reply] > 100 µM

[ask] GET /values?readout=IC50&item= COc1ccc2c(c1)C(=NOCc1ccccc1)C(=O)N2CCCC(=O)OC1O[C@@H]2O[C@@]3(C)CC[C@H]4[C@H](C)CC[C@@H]([C@H]1C)[C@@]24OO3 (stereo partly drawn)
[reply] > 100 µM

[ask] GET /values?readout=IC50&item= C[C@@H]1CC[C@H]2[C@@H](C)C(OC(=O)CCCN3C(=O)C(=O)c4cc(F)ccc43)O[C@@H]3O[C@@]4(C)CC[C@@H]1[C@]32OO4 (stereo partly drawn)
[reply] > 100 µM
